- Test system: Histone deacetylase
- Run description: Inhibition of HDAC (unknown origin)
- Type: protein assay, Homo sapiens
Threshold 3 µM. IC50 below it: Criterion met. IC50 at it or above: Criterion not met.

[
  {
    "Structure smiles string": "CNC(=O)c1cc(Oc2ccc(NC(=O)c3ccc(N)cc3)cc2)ccc1N",
    "Category": "Criterion met"
  },
  {
    "Structure smiles string": "CN(C)C(=O)c1cc(Oc2ccc(NC(=O)c3ccc(Cl)c(C(F)(F)F)c3)cc2)ccc1N",
    "Category": "Criterion not met"
  },
  {
    "Structure smiles string": "CNC(=O)c1cc(Oc2ccc(NC(=O)c3ccccc3)cc2)ccc1N",
    "Category": "Criterion not met"
  },
  {
    "Structure smiles string": "CNC(=O)c1cc(Oc2ccc(NC(=O)c3ccc4ccccc4c3)cc2)ccc1N",
    "Category": "Criterion not met"
  },
  {
    "Structure smiles string": "COc1cc2ncnc(Nc3ccc(Cl)cc3Cl)c2cc1OCCCCCCC(=O)NO",
    "Category": "Criterion met"
  },
  {
    "Structure smiles string": "CNC(=O)c1cc(Oc2ccc(NC(=O)c3cccnc3)cc2)ccc1N",
    "Category": "Criterion not met"
  },
  {
    "Structure smiles string": "CNC(=O)c1cc(Oc2ccc(NC(=O)c3cccc(O)c3)cc2)ccc1N",
    "Category": "Criterion met"
  },
  {
    "Structure smiles string": "COc1cc2/c(=N/c3ccc(Br)cc3F)nc[nH]c2cc1OCC1CCN(C)CC1",
    "Category": "Criterion not met"
  },
  {
    "Structure smiles string": "CNC(=O)c1cc(Oc2ccc(NC(=O)c3ccc(Cl)c(C(F)(F)F)c3)cc2)ccc1N",
    "Category": "Criterion met"
  },
  {
    "Structure smiles string": "CNC(=O)c1cc(Oc2ccc(NC(=O)c3cccc(N)c3)cc2)ccc1N",
    "Category": "Criterion met"
  },
  {
    "Structure smiles string": "NC(=O)c1cc(Oc2ccc(NC(=O)c3ccc(Cl)c(C(F)(F)F)c3)cc2)ccc1N",
    "Category": "Criterion met"
  }
]

----------
Below, each of the molecules is paired with its reported pIC50 value.
- Tested on: Panel NCI-60 (60 carcinoma cell lines)
- Run description: Cytotoxicity against human Panel NCI-60 (60 carcinoma cell lines)
- Format: functional, cell-based
pIC50: −log10 of the molar value.

[
  {
    "Structure smiles string": "Cn1c(CCCCCCC(=O)NO)nc2cc(N(CCCl)CCCl)ccc21",
    "pIC50": 5.66
  },
  {
    "Structure smiles string": "Cn1c(CCCC(=O)O)nc2cc(N(CCCl)CCCl)ccc21",
    "pIC50": 7.11
  }
]

----------
- Run description: Antiproliferative activity against non-small cell lung cancer cell line (unknown origin)

[
  {
    "Structure smiles string": "Cc1nc2c(F)cc(-c3nc(Nc4ccc(CNC(=O)CC(=O)NO)cc4)ncc3F)cc2n1C(C)C",
    "IC50, µM": 0.0183
  }
]

----------
- Test system: Histone deacetylase 1 (Homo sapiens)
- Run description: Inhibition of human recombinant HDAC1 using Ac-Lys-Tyr-Lys (epsilon-acetyl)-AMC as substrate incubated for 24 hrs by EnVision multilabel plate reader method
pIC50: −log10 of the molar value.

[
  {
    "Structure smiles string": "COc1cc2ncnc(Nc3cccc(/C=C/C(=O)NO)c3)c2cc1OCCCN1CCOCC1",
    "pIC50": 6.82
  }
]

----------
- Test system: Vascular endothelial growth factor receptor 2 (Homo sapiens, UniProt P35968)
- Sequence (P35968 whole entry): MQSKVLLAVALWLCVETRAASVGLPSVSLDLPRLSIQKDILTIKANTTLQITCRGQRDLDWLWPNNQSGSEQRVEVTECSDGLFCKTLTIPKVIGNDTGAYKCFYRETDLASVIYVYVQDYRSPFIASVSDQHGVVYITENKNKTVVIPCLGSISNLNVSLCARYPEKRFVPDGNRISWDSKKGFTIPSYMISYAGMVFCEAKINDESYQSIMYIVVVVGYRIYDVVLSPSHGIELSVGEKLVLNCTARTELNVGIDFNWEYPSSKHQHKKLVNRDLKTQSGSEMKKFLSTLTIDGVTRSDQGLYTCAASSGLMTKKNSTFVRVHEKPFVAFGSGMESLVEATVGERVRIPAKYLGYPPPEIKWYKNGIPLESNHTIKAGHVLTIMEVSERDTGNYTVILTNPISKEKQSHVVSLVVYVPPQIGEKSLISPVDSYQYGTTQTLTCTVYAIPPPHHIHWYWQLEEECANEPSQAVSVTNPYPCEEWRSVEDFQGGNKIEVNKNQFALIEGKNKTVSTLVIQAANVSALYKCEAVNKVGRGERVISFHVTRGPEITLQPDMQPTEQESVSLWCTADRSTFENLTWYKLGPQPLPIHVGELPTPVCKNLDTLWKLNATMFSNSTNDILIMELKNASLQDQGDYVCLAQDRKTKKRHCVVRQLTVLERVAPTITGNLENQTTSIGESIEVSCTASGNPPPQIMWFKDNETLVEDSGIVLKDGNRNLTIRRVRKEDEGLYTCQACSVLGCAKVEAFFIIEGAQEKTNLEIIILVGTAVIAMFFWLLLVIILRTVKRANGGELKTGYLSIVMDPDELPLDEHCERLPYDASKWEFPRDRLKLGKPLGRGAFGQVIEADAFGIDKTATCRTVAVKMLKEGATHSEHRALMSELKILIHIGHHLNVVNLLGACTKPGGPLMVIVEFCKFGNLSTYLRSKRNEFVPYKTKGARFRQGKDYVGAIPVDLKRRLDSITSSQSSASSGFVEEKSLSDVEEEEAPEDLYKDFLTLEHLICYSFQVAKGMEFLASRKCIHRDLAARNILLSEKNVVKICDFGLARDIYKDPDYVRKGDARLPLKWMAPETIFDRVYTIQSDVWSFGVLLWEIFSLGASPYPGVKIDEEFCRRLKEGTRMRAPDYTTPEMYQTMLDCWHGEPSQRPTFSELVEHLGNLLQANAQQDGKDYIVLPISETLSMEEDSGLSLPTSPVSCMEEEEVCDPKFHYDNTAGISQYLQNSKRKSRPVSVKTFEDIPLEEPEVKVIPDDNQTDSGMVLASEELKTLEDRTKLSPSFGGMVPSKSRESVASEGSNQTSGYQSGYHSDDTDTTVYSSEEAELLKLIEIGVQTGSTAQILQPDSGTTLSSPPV
pIC50: −log10 of the molar value.
Readout name: pIC50

[
  {
    "Structure smiles string": "COc1cc2ncnc(Nc3ccc(Cl)cc3Cl)c2cc1OCCCCCCC(=O)NO",
    "Result": 7.08
  }
]

----------
- Test system: Protein deacetylase HDAC6 (Homo sapiens, UniProt Q9UBN7)
- Sequence (Q9UBN7 whole entry): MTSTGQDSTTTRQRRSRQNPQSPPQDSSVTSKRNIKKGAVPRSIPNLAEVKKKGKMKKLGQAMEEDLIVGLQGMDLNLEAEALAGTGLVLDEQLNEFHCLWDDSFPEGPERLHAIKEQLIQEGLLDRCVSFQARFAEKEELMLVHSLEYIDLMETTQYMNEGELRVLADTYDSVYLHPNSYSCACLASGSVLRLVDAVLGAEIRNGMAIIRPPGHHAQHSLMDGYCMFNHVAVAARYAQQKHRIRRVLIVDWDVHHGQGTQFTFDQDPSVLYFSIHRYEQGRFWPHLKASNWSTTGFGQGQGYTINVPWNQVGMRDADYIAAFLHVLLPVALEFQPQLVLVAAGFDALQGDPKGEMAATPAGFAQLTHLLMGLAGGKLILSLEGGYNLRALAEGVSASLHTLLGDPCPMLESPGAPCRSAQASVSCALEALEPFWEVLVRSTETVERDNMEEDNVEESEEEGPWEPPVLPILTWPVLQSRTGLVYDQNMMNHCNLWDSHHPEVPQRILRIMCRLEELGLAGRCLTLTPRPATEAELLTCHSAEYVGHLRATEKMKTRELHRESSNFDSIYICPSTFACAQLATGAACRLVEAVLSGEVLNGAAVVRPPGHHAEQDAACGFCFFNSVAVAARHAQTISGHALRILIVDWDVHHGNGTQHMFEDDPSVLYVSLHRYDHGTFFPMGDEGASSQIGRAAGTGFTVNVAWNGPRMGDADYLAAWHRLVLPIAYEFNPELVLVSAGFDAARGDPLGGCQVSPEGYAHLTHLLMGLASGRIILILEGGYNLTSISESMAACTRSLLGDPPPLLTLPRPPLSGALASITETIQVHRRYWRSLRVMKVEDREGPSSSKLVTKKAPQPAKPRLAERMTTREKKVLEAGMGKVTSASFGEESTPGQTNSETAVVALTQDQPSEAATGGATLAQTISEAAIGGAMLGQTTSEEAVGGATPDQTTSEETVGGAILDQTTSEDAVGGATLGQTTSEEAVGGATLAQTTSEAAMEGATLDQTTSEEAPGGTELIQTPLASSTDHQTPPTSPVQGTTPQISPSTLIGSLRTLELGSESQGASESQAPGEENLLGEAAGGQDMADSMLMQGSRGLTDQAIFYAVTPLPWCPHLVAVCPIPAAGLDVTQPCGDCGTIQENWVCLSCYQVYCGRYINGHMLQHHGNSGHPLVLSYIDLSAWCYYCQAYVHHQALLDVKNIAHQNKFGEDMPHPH
- Run description: Inhibition of HDAC6 (unknown origin)

[
  {
    "Structure smiles string": "CN(CCOc1no[n+]([O-])c1S(=O)(=O)c1ccccc1)C(=O)c1ccc(/C=C/C(=O)NO)cc1",
    "Test system": "Protein deacetylase HDAC6 (Homo sapiens, UniProt Q9UBN7)",
    "Relation": "=",
    "IC50 / nM": 160
  },
  {
    "Structure smiles string": "Cc1nc2c(F)cc(-c3nc(Nc4ccc(CNC(=O)CC(=O)NO)cc4)ncc3F)cc2n1C(C)C",
    "Test system": "Protein deacetylase HDAC6 (Homo sapiens, UniProt Q9UBN7)",
    "Relation": "=",
    "IC50 / nM": 5.9
  },
  {
    "Structure smiles string": "Cc1ccc(NCc2ccc(C(=O)Nc3ccccc3N)cc2)cc1Nc1nccc(-c2cccnc2)n1",
    "Test system": "Protein deacetylase HDAC6 (Homo sapiens, UniProt Q9UBN7)",
    "Relation": "≥",
    "IC50 / nM": 32000
  },
  {
    "Structure smiles string": "O=C(CCCCCOc1no[n+]([O-])c1S(=O)(=O)c1ccccc1)NO",
    "Test system": "Protein deacetylase HDAC6 (Homo sapiens, UniProt Q9UBN7)",
    "Relation": "=",
    "IC50 / nM": 7400
  }
]

----------
- Tested on: A549
- Run description: Antiproliferative activity against human A549 cells incubated for 72 hrs by CCK-8 assay
- Assay type: functional, cell-based
- Run conditions: A549, 72 h

[
  {
    "Structure smiles string": "C[C@H]1COc2c(N3CCN(C)CC3)c(F)cc3c(=O)c(C(=O)O)cn1c23",
    "Test system": "A549",
    "IC50": "> 70 µM"
  }
]

----------
- Test system: Tubulin
- Run description: Inhibition of tubulin polymerization (unknown origin) incubated for 15 mins in presence of GTP by fluorescence-based tubulin polymerization assay kit
Simple rule here: IC50 less than 5 µM is satisfied, otherwise not satisfied.

[
  {
    "Structure smiles string": "C[C@H]1COc2c(N3CCN(C)CC3)c(F)cc3c(=O)c(C(=O)OCc4cn(CCCCCCC(=O)NO)nn4)cn1c23",
    "Test system": "Tubulin",
    "Category": "satisfied"
  },
  {
    "Structure smiles string": "C[C@H]1COc2c(N3CCN(C)CC3)c(F)cc3c(=O)c(C(=O)OCc4cn(CCCCCCCC(=O)NO)nn4)cn1c23",
    "Test system": "Tubulin",
    "Category": "not satisfied"
  },
  {
    "Structure smiles string": "C[C@H]1COc2c(N3CCN(C)CC3)c(F)cc3c(=O)c(C(=O)O)cn1c23",
    "Test system": "Tubulin",
    "Category": "not satisfied"
  },
  {
    "Structure smiles string": "C[C@H]1COc2c(N3CCN(C)CC3)c(F)cc3c(=O)c(C(=O)NCc4cn(CCCCCCC(=O)NO)nn4)cn1c23",
    "Test system": "Tubulin",
    "Category": "satisfied"
  },
  {
    "Structure smiles string": "C[C@H]1COc2c(N3CCN(C)CC3)c(F)cc3c(=O)c(C(=O)NCc4cn(CCCCCCCC(=O)NO)nn4)cn1c23",
    "Test system": "Tubulin",
    "Category": "not satisfied"
  },
  {
    "Structure smiles string": "C[C@H]1COc2c(N3CCN(C)CC3)c(F)cc3c(=O)c(C(=O)NCc4cn(CCCCCC(=O)NO)nn4)cn1c23",
    "Test system": "Tubulin",
    "Category": "satisfied"
  },
  {
    "Structure smiles string": "C[C@H]1COc2c(N3CCN(C)CC3)c(F)cc3c(=O)c(C(=O)OCc4cn(CCCCCC(=O)NO)nn4)cn1c23",
    "Test system": "Tubulin",
    "Category": "not satisfied"
  }
]

----------
- Run description: Antiproliferative activity against breast cancer cell line (unknown origin)
Readout name: IC50 (nM)

[
  {
    "Structure smiles string": "Cc1nc2c(F)cc(-c3nc(Nc4ccc(CNC(=O)CC(=O)NO)cc4)ncc3F)cc2n1C(C)C",
    "Readout name": "IC50",
    "Unit spec": "nM",
    "Result": 18.3
  }
]

----------
- System: DU-145
- Run description: Antiproliferative activity against human DU-145 cells incubated for 48 hrs by Sulforhodamine B staining method
- Type: functional, cell-based
- Run conditions: DU-145, 48 h

[
  {
    "Structure smiles string": "CN(C)CCNC(=O)c1cccc2cc3ccccc3nc12",
    "IC50 [µM]": 2
  },
  {
    "Structure smiles string": "O=C(CCCCCCC(=O)Nc1ccccc1)NO",
    "IC50 [µM]": 0.79
  }
]

----------
pIC50 for assorted molecules
- Test system: Bcr/Abl fusion protein (Homo sapiens, UniProt P00519)
- Sequence (P00519 whole entry, the tested form may be a part): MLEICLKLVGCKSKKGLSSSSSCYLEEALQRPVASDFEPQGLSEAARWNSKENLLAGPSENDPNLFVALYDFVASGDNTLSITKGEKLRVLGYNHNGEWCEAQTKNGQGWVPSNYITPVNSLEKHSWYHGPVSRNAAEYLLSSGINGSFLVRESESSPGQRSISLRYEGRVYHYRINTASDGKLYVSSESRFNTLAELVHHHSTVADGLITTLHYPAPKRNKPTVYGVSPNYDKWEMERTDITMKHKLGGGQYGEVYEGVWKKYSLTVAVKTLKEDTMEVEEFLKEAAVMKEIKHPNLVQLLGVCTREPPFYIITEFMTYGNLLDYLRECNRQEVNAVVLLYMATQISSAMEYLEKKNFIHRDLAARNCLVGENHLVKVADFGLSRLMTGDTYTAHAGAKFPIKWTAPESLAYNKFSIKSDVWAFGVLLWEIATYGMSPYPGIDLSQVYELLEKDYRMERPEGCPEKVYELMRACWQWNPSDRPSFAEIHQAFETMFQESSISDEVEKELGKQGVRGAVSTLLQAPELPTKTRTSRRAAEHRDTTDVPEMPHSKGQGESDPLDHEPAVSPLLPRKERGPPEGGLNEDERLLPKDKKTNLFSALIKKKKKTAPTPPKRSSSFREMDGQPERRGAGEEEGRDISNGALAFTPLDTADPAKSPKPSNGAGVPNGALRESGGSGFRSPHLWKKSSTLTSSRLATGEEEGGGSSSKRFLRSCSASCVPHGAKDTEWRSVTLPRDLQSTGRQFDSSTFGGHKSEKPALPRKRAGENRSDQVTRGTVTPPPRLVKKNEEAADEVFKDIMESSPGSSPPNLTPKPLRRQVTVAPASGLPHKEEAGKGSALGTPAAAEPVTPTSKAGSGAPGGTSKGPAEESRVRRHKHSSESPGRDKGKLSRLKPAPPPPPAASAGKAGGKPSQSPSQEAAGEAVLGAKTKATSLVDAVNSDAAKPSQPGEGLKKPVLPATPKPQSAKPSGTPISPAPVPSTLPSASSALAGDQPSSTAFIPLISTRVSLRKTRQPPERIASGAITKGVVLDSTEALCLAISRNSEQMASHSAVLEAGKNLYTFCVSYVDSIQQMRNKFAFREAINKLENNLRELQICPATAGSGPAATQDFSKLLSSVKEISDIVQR
- Sequence (P11274 whole entry, further chain, the tested form may be a part): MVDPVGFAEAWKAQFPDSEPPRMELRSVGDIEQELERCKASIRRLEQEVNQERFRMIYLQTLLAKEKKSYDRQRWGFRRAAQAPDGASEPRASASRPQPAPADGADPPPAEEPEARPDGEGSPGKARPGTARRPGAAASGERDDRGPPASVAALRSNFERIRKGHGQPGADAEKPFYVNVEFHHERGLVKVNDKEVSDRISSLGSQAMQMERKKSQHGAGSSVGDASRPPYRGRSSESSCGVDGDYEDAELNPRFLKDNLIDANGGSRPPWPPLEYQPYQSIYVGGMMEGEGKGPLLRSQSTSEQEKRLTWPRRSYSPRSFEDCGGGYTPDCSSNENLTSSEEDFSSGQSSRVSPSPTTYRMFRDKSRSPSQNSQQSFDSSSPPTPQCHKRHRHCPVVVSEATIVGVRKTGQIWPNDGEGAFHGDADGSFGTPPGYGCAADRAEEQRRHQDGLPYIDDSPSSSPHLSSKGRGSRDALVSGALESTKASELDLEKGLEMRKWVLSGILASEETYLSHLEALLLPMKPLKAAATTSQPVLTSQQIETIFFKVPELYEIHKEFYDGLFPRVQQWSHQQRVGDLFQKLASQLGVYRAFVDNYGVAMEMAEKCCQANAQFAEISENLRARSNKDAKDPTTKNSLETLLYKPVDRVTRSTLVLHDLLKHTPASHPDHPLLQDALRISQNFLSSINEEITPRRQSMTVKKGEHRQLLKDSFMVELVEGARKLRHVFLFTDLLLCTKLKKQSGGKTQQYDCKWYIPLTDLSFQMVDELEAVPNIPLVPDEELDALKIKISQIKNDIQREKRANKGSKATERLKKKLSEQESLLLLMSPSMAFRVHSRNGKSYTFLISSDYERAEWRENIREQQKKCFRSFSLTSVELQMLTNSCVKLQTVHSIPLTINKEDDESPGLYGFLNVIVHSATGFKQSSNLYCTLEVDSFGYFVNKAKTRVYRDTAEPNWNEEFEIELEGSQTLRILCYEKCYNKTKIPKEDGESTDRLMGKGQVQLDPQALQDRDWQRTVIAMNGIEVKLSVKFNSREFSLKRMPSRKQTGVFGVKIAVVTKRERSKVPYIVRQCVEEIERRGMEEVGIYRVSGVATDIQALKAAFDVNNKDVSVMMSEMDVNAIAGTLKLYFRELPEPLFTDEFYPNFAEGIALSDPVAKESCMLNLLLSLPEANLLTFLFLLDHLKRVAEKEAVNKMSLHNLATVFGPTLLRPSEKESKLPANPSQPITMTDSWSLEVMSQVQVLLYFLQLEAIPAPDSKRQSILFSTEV
- Run description: Inhibition of Bcr-Abl (unknown origin)
pIC50: −log10 of the molar value.

[
  {
    "Structure smiles string": "CCN1CCN(c2cc(Nc3ncc(C(=O)Nc4ccccc4N)s3)nc(C)n2)CC1",
    "Test system": "Bcr/Abl fusion protein (Homo sapiens, UniProt P00519)",
    "pIC50": 4.67
  },
  {
    "Structure smiles string": "CCN1CCN(c2cc(Nc3ncc(C(=O)Nc4ccc(F)cc4N)s3)nc(C)n2)CC1",
    "Test system": "Bcr/Abl fusion protein (Homo sapiens, UniProt P00519)",
    "pIC50": 4.75
  }
]

Source listed as ChEMBL document CHEMBL5214883.
